B1: tRNA (parent)
chain: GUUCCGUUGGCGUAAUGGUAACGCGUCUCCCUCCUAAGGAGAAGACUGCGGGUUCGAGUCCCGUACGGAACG

# Variants of: B1
# Test method notes: yeast fitness relative to wild type (ratio to wild type); higher = fitter; tRNA-Arg(CCU), competitive growth, 37 C, YPD
Fewer inactive variants are shown than the library holds.
// reported yeast fitness for each item listed
Write the value as a bare number.

Field: example entries. Status: answers known.
>>> quantitative_readout("U28C G52A")
0.836
>>> quantitative_readout("C24U A45C A69C")
0.619
>>> quantitative_readout("A15U A20C C46G G50C C61G")
0.604
>>> quantitative_readout("C24A G39A")
0.66
>>> quantitative_readout("A15U G18C C34G A42G G52C")
0.575
>>> quantitative_readout("G6C G52C")
0.653
>>> quantitative_readout("C5U C31A A40G")
0.743
>>> quantitative_readout("A14G C46U")
0.886

Please look at the following variant next.
Name the recorded yeast fitness of the item G18A C24A C62U in your answer.
0.536
